Target: Fyn (UniProt P06241)
Sequence (P06241 whole entry, looked up): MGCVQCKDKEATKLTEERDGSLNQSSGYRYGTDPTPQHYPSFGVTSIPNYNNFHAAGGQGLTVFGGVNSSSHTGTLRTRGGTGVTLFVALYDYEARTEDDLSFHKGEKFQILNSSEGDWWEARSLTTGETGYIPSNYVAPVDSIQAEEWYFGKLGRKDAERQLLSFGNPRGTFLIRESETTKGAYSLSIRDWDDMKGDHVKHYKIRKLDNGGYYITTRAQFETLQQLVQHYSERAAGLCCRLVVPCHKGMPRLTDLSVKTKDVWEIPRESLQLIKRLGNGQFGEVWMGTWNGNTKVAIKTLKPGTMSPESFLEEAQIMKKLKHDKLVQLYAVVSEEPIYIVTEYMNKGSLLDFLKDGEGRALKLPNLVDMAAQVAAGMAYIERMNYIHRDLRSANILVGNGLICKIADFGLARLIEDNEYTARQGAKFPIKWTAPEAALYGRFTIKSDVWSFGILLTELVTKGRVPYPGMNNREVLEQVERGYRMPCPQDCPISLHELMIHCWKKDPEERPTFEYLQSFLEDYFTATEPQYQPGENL
Assay: phosphorylation enrichment, bacterial display (enrichment ratio); higher = better substrate or ligand; peptides without Tyr show the background;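 note: 11-residue human phosphosite peptides and single-mutation variants displayed on the E. coli surface, counted by deep sequencing, each peptide's frequency after selection divided by its frequency in the unselected input library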;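 note: frequency after pTyr selection over input frequency; kinase dosed for 20-30% of maximal phosphorylation in three min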

Input sequence: YRDALYKFIVD [PHEX_Y250_M253I]
phosphorylation enrichment: 0.623

Input sequence: CTTTHYNYMCN [TP53_Y234_I232T]
phosphorylation enrichment: 0.441

Input sequence: MDNQEYKDAFT [BRDT_Y331_K336T_YF]
phosphorylation enrichment: 0.486

Input sequence: SCRSKYVGLWG [KCNQ1_Y184_G179S]
phosphorylation enrichment: 0.419

Input sequence: STFVPCEIKVQ [L1CAM_Y784_Y784C]
phosphorylation enrichment: 0.49

Input sequence: CTTIHYNFKCN [TP53_Y234_M237K_YF]
phosphorylation enrichment: 0.405

Input sequence: ISRVLYPNDNF [PYGM_Y281]
phosphorylation enrichment: 0.759

Input sequence: VPLLEYYWDIF [CDAN1_Y712_R714W]
phosphorylation enrichment: 0.879

Input sequence: CTTTHYNFMCN [TP53_Y234_I232T_YF]
phosphorylation enrichment: 0.437

Input sequence: ARLEYYENEKK [IRS1_Y47]
phosphorylation enrichment: 0.595

Input sequence: TVHPGYGFLSE [PCCA_Y143_A138T]
phosphorylation enrichment: 0.384

Input sequence: NTCNRYCCDEI [ITGB3_Y660_R662C]
phosphorylation enrichment: 0.577

Input sequence: WSRAMYPDLGP [STARD8_Y330]
phosphorylation enrichment: 0.463

Input sequence: KDPPDYKYQPR [SOX9_Y172_H169P]
phosphorylation enrichment: 0.51

Input sequence: FCRHNYGAVES [HLA-DRB1_Y112_V114A_YF]
phosphorylation enrichment: 0.359

Input sequence: NNTFLYQLVFD [EXO1_Y284]
phosphorylation enrichment: 1.7

Input sequence: NGVSFYINLCQ [IGF2R_Y2025_YF]
phosphorylation enrichment: 0.452

Input sequence: PEADKYRLTYA [FGG_Y300]
phosphorylation enrichment: 0.626

Input sequence: CTTVHYNFMCN [TP53_Y234_I232V_YF]
phosphorylation enrichment: 0.499

Input sequence: LARDMYDKEFF [MET_Y1230_YF]
phosphorylation enrichment: 0.507

Input sequence: APVEDYGGGGG [B4GALT6_Y382_I379V]
phosphorylation enrichment: 0.496

Input sequence: LTSVKYLLSAT [GSDMC_Y26_P23S]
phosphorylation enrichment: 0.418

Input sequence: IGEGTSGVVFK [CDK2_Y15_Y15S_YF]
phosphorylation enrichment: 0.365

Input sequence: RGVTRYIFNRE [HLA-DQB1_Y62_Y58G_YF]
phosphorylation enrichment: 0.982

Input sequence: EEQKKNFNAMK [SCN5A_Y1494_Y1494N_YF]
phosphorylation enrichment: 0.376

Input sequence: GVRFIYTIDGS [DCX_Y105_YF]
phosphorylation enrichment: 1.04

Input sequence: FDKPVYQKTTE [LDLR_Y828_N825K]
phosphorylation enrichment: 0.472

Input sequence: NGSKAYAYVHF [PABPC5_Y147_G146A]
phosphorylation enrichment: 0.4

---

Each item that follows carries a reported phosphorylation enrichment.
Biological target: Fyn (UniProt P06241)
Experiment: phosphorylation enrichment, bacterial display (enrichment ratio); higher = better substrate or ligand; peptides without Tyr show the background

Input sequence: QMVGMYASSFM [AVPR2_Y124_YF]
phosphorylation enrichment: 1.59

Input sequence: FRDALYKFMVD [PHEX_Y250_YF]
phosphorylation enrichment: 0.525

Input sequence: QEIATYRRLLE [KRT14_Y415]
phosphorylation enrichment: 0.562

Input sequence: TIQSMYGCDVG [HLA-B_Y123_L119I]
phosphorylation enrichment: 0.427

Input sequence: FQGRRYDCDCD [CRYGS_Y21]
phosphorylation enrichment: 0.428

Input sequence: IPGGIYDADLN [CST4_Y35]
phosphorylation enrichment: 1.76

Input sequence: VSFGEYRFRSV [CFTR_Y515_D513G_YF]
phosphorylation enrichment: 0.356

Input sequence: ENQEIYRKAFD [KPNA1_Y493_Q494R]
phosphorylation enrichment: 0.431

Input sequence: VQVAYYTMMMN [SPATA17_Y84]
phosphorylation enrichment: 1.48

Input sequence: DSFWSYCNAVA [SLC20A2_Y436_S434W_YF]
phosphorylation enrichment: 0.527

Input sequence: RQSTLYSFFPT [MSH6_Y8_K13T]
phosphorylation enrichment: 7.89

Input sequence: EHEALYLEADL [CENPF_Y1920]
phosphorylation enrichment: 0.653

Input sequence: IHFPPYTDWNQ [ALDH3B2_Y365_YF]
phosphorylation enrichment: 0.526

Input sequence: TCRPPYFHRNC [HGD_Y333_F329C_YF]
phosphorylation enrichment: 0.4

Input sequence: RWQQLYDTLNA [EIF3M_Y351_Q346R]
phosphorylation enrichment: 5.67

Input sequence: AKKKMYSRKTK [AGXT_Y231]
phosphorylation enrichment: 0.431

Input sequence: QKDTFYGLRSL [IGSF10_Y126]
phosphorylation enrichment: 0.498

Input sequence: FGAHNHHPLPV [OAT_Y55_Y55H_YF]
phosphorylation enrichment: 0.369

Input sequence: GIMEEYQLPYY [BMPR1A_Y453_V450M]
phosphorylation enrichment: 1.4

Input sequence: AELVRYYMEHH [PTPN11_Y80_Q79R]
phosphorylation enrichment: 0.514

Input sequence: NPQKPYFIRLY [WAS_Y83_S82P]
phosphorylation enrichment: 0.354

Input sequence: DTERIYDDDFF [UBA1_Y560]
phosphorylation enrichment: 0.748

Input sequence: CDLTDYLMKIL [ACTA1_Y190_R185C]
phosphorylation enrichment: 0.478

Input sequence: PVFEVYPLLNC [GATA1_Y78_Q76E]
phosphorylation enrichment: 0.418

Input sequence: FKEQGYHRLPP [RIN1_Y681_YF]
phosphorylation enrichment: 0.457

Input sequence: LAGRFYALKSM [CKB_Y174_YF]
phosphorylation enrichment: 0.463

Input sequence: HLMLQYDAVVN [SLC25A32_Y152_R147H]
phosphorylation enrichment: 1.15

Input sequence: VYSIDYYRVGG [NTRK2_Y706_T704I]
phosphorylation enrichment: 6.29

Input sequence: CGADSYEMEED [EGFR_Y316]
phosphorylation enrichment: 0.534

---

Target: Fes (UniProt P07332)
Sequence (P07332 whole entry, looked up): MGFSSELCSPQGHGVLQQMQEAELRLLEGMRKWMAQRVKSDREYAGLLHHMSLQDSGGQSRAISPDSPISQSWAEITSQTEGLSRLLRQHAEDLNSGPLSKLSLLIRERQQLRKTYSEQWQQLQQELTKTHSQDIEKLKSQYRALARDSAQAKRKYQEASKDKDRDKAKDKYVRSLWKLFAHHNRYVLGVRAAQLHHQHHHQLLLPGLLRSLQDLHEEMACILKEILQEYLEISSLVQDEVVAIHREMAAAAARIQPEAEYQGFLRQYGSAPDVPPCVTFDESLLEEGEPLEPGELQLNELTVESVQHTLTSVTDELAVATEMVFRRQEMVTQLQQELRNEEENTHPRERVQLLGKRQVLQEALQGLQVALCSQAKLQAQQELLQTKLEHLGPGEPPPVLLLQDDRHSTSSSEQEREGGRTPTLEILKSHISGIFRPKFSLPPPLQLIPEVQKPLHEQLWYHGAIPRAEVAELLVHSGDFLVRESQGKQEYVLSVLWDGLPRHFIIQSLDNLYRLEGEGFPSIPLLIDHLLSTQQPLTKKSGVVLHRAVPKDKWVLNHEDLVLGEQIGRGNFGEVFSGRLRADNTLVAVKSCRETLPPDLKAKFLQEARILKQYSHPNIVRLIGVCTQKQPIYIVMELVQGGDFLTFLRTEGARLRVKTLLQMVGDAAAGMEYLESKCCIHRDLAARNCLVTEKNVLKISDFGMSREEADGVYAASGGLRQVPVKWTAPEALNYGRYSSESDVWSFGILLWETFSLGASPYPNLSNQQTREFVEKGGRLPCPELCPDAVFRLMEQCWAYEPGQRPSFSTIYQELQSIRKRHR
Test: phosphorylation enrichment, bacterial display (enrichment ratio); higher = better substrate or ligand; peptides without Tyr show the background

Input sequence: ERSMSYSDESR [SMG1_Y143]
phosphorylation enrichment: 0.912
//
Input sequence: ATPKGYELDAS [OTC_Y223_P225L]
phosphorylation enrichment: 0.903
//
Input sequence: AVARPYHIQKW [ACSBG1_Y677_A673V]
phosphorylation enrichment: 0.584
//
Input sequence: FDKEFYSVHNK [MET_Y1235_YF]
phosphorylation enrichment: 0.947
//
Input sequence: GREEFYVHYVG [KAT8_Y90]
phosphorylation enrichment: 1.16
//
Input sequence: DNEFAYLKAII [HNF4A_Y288_YF]
phosphorylation enrichment: 1.07
//
Input sequence: KLVDVYVNDAF [PGK1_Y161_G158V]
phosphorylation enrichment: 0.81
//
Input sequence: EEGNPYYSGAR [MCCC2_Y520_S523G]
phosphorylation enrichment: 0.917
//
Input sequence: QRIHDYFEHRF [HCN4_Y554_YF]
phosphorylation enrichment: 0.656
//
Input sequence: HLQQSYLPRGT [TEX45_Y396]
phosphorylation enrichment: 1.26
//
Input sequence: LICRRYLVMQR [IL3RA_Y328_V323L]
phosphorylation enrichment: 2.01
//
Input sequence: ILQSMYGCDVG [HLA-B_Y123_T118I]
phosphorylation enrichment: 0.935
//
Input sequence: ISRVLYPNDNF [PYGM_Y281]
phosphorylation enrichment: 0.748
//
Input sequence: YQQLFYLLQIN [IQGAP2_Y890_T894I]
phosphorylation enrichment: 1.81

---

System: c-Src
Test: phosphorylation enrichment, bacterial display (enrichment ratio); higher = better substrate or ligand; peptides without Tyr show the background
Each item that follows carries a reported phosphorylation enrichment.
Endpoint: phosphorylation enrichment

Input sequence: KDHPDYKFQLR [SOX10_Y171_P175L_YF]
Test value: 0.512
--
Input sequence: LKDEDYLKDIV [HAUS3_Y582]
Test value: 1.02
--
Input sequence: FMYKVYSDPQP [FGFR1_Y280_C277Y]
Test value: 0.495
--
Input sequence: EAKENYGKTLK [CHL1_Y291_T287A]
Test value: 0.424
--
Input sequence: PVGVLYEVKVY [PTS_Y128_K129E]
Test value: 0.585
--
Input sequence: DMGAQYAAASR [ARID1B_Y483_P488R]
Test value: 0.365
--
Input sequence: SGRPGYCLGTR [SCO1_Y60]
Test value: 0.41
--
Input sequence: GHLFAYDWISI [BEST1_Y227_YF]
Test value: 0.915
--
Input sequence: ISNATYKEIGL [FLT1_Y199]
Test value: 0.366
--
Input sequence: QSSEGYDLGDR [KIAA1210_Y564_G565D]
Test value: 0.688
--
Input sequence: MHYSNYVSKGS [PDGFRA_Y849_D846Y]
Test value: 0.495
--
Input sequence: AMGPVYQAAAL [HYOU1_Y421_A419P]
Test value: 4.05
--
Input sequence: RSSGGYEPRGC [FUS_Y239_R244C]
Test value: 0.376
--
Input sequence: TDLAFYLVRKG [ASL_Y376_YF]
Test value: 0.361
--
Input sequence: QLGLQYSQGLV [EIF2B4_Y214_R209Q]
Test value: 0.629
--
Input sequence: RGDCMYASLLG [AR_Y269_P271S]
Test value: 6
--
Input sequence: ADIETYLLEKS [MYH7_Y266]
Test value: 0.731
--
Input sequence: CNTIHYNYMCN [TP53_Y234_T230N]
Test value: 0.532
--
Input sequence: EDASEYFENFI [PARP4_Y214_F215Y_YF]
Test value: 0.618
--
Input sequence: PRIHSYRGHLW [VHL_Y112_R107P]
Test value: 0.748
--
Input sequence: ESMNTYLQTSP [NAT1_Y208]
Test value: 0.477
--
Input sequence: GMRHGYGVRQS [JPH2_Y141]
Test value: 0.326
--
Input sequence: IFRASYFRRGD [LTK_Y676_YF]
Test value: 0.582
--
Input sequence: SDVCMYRKNIF [SYNE2_Y570_YF]
Test value: 0.436
--
Input sequence: QMVGMYASSFM [AVPR2_Y124_YF]
Test value: 1.6
--
Input sequence: KGIDRYNPENL [EIF3K_Y21]
Test value: 0.358
--
Input sequence: QYQEKYKQVEQ [HCN4_Y531]
Test value: 0.491
--
Input sequence: CTTTHYNYMCN [TP53_Y234_I232T]
Test value: 0.424
--
Input sequence: QTPVLYAMLYH [MPZ_Y220_D224Y]
Test value: 3.4
--
Input sequence: MQMEEYRGWVE [BTNL2_Y91]
Test value: 0.553
--
Input sequence: QSPQLYKQLCI [DARS1_Y253_M256L]
Test value: 0.53
--
Input sequence: LLLLFYVVRFC [MPZ_Y177_YF]
Test value: 0.726
--
Input sequence: KSFDMYSGDVM [FAM3D_Y122_A118S]
Test value: 1.1
--
Input sequence: FNSLPYQVPTS [CALCOCO2_Y358]
Test value: 0.561
--
Input sequence: EQKRYYNAMKK [SCN5A_Y1495_K1493R]
Test value: 0.371
--
Input sequence: IPGGIYDADLN [CST4_Y35]
Test value: 1.62
--
Input sequence: FDKPVYQKTTE [LDLR_Y828_N825K]
Test value: 0.506
--
Input sequence: GLNKGYRMVVN [HINT1_Y94]
Test value: 0.34
--
Input sequence: PAQAAYQKVVA [HBB_Y131_V127A]
Test value: 0.375
--
Input sequence: SSMSDYNPLEK [MYOC_Y479_I477S]
Test value: 0.439
--
Input sequence: SSMIDYNPLEK [MYOC_Y479]
Test value: 0.689
--
Input sequence: QRIHDYFEHRF [HCN4_Y554_YF]
Test value: 0.496
--
Input sequence: MASTSYDFCRV [BST2_Y6_YF]
Test value: 0.525
--
Input sequence: MCITRYERESQ [PRNP_Y218_Q217R]
Test value: 0.404
--
Input sequence: PVQAAYPKVVA [HBB_Y131_Q132P]
Test value: 1
--
Input sequence: ENPLDYGSAWA [AR_Y395]
Test value: 0.476
--
Input sequence: LRGEDYGFSVD [PRKCI_Y430]
Test value: 0.512
--
Input sequence: RIFDFYSARKT [STOX1_Y858_A863T_YF]
Test value: 0.624
--
Input sequence: LEQQKYTVTID [IKBKB_Y199_V203I]
Test value: 0.569
--
Input sequence: YSKTQYNQVPR [CXADR_Y318_S323R]
Test value: 0.462
--
Input sequence: ELTAKYLNFFR [P3H4_Y181_Q186R_YF]
Test value: 0.366
--
Input sequence: RIDPDYMGRVR [IGSF9_Y81_V82M]
Test value: 0.466
--
Input sequence: KALSLYTKLMN [STAM_Y371_E366K]
Test value: 0.393
--
Input sequence: IHHIDYFKETT [FGFR1_Y653_K656E_YF]
Test value: 0.489
--
Input sequence: HFGCIYHGTLL [MET_Y1093_V1092I]
Test value: 4.15
--
Input sequence: YDCKWYIPLTD [BCR_Y756]
Test value: 0.69
--
Input sequence: EVKEAYMGSVL [ACAT1_Y90_N93S]
Test value: 0.592
--
Input sequence: NFRPGYNNFFN [USH2A_Y467_YF]
Test value: 0.64
